The origin of these recorded values is PubChem BioAssay (NCI).

Entries annotated with measured TGI
# Test system: HOP-18 NSCLC
# protocol-text: NCI tumour cell line growth inhibition, 48 h

Hey, HOP-18 NSCLC data for Cc1c(/C=N/NC(=O)c2ccccc2O)c(=O)n(-c2ccccc2)n1C : TGI came out at > 100 µM

# value of TGI, HOP-18 NSCLC, item COC(=O)c1sc(C(=O)OC)c2c1CS(=O)C2 = > 100 µM

Log: HOP-18 NSCLC, compound CC1CC(C)CC(C)C(O)/C(C#N)=C/C=C/CC(C2CCCC2C(=O)O)OC(=O)CC(O)C(C)C1 (configuration not stated) , TGI = 0.0612 µM

Reported HOP-18 NSCLC TGI for item CC1=C(C(=O)Nc2ccccc2C)C(c2ccc(Cl)cc2)C(C(=O)Nc2ccccc2C)=C(C)N1 was > 100 µM

Result for C=C(c1ccccc1)C1(O)CCCCC1N (configuration not stated) , tested on HOP-18 NSCLC, TGI: > 100 µM
